- Experimental protocol: physchem
- Format: physicochemical
Reported metric: solubility at 7 days
Remember to follow the number with its unit.

Ask | Request the reported solubility at 7 days associated with "C=CC[C@@H]1/C=C(\C)C[C@H](C)C[C@H](OC)[C@H]2O[C@@](O)(C(=O)C(=O)N3CCCC[C@H]3C(=O)O[C@H](/C(C)=C/[C@@H]3CC[C@@H](O)[C@H](OC)C3)[C@H](C)[C@@H](O)CC1=O)[C@H](C)C[C@@H]2OC"
Reply | 4 µg/mL

Data credit: paper PMC7911614
